The measurements presented in this section are drawn from the RNAGym collection of RNA variant scans (doi:10.1073/pnas.2313332121).

Known polymerase ribozyme fitness (log ratio) of a selection of variants
B1: TPR 5TU (parent)
chain: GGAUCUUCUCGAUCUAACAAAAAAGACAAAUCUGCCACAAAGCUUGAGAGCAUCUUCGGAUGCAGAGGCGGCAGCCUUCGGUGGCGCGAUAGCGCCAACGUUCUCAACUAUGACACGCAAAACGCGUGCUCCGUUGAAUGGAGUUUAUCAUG

Variants of: B1
RUN_DESCRIPTION: polymerase ribozyme fitness, log enrichment relative to wild type (log ratio); higher = more active; in vitro selection for triplet polymerase activity
Variants at the floor of the assay were thinned out.

- MUTATION_KEY: "U13C A19C A89U C95U U146G A150U"
  polymerase ribozyme fitness (log ratio): -2.94
- MUTATION_KEY: "A17G G48U C87U A89U A119C"
  polymerase ribozyme fitness (log ratio): -2.96
- MUTATION_KEY: "C8U G59C"
  polymerase ribozyme fitness (log ratio): -2.99
